Assay: Blood sampling for THC and CBD plasma concentration after single oral dosing
Conditions: dog, plasma, oral, THC level in blood plasma fraction, mean of dogs 1-4; 0.24 mg/kg THC + 0.12 mg/kg CBD oral once; 1.5 h
Protocol: Two compositions, IVP1 and IVP2, were administered in varying amounts in the study. Dosage volumes were calculated prior to Day 0, to provide the target dosage in mg/kg bodyweight based on actual dog bodyweights and IVP active ingredient composition based on the Certificates of Analysis. Blood samples of approximately 5 mL were collected at each drug concentration sampling time-point from each animal using 22-gauge needles and 5 mL syringes. […]
MEASURED_METRIC: concentration at 1.5 h (µg/mL)
Answers are plain numbers, in µg/mL.

concentration at 1.5 h for CCCCCc1cc(O)c2c(c1)OC(C)(C)[C@@H]1CCC(C)=C[C@@H]21 [THC, Δ^9-Tetrahydrocannabinol] is 0.0326

The reported numbers originate from patent US12083094B2.
